Reference for the values: patent US7582786B2

assay: SOD activity, xanthine/xanthine oxidase with cytochrome C as acceptor (Example 2); assay type: biochemical; details: relative to C7 (C7 = 100)
QUANTITY KIND: SOD
Answers are plain numbers.

Below: 10 molecules and their reported SOD.
STRUCTURE: COc1cccc2c1[O][Mn]([O]C(C)=O)[O]c1c(cccc1OC)C=Nc1ncccc1N=C2
SOD: 83

STRUCTURE: CC(=O)[O][Mn]1[O]c2ccccc2C=Nc2cccnc2N=Cc2ccccc2[O]1
SOD: 57

STRUCTURE: O=[N+]([O-])[Mn]1[O]c2ccccc2C=NCCN=Cc2ccccc2[O]1
SOD: 200

STRUCTURE: Fc1cccc2c1[O][Mn]([Cl])[O]c1c(F)cccc1C=NCCN=C2
SOD: 115

STRUCTURE: Oc1ccc2c(c1)[O][Mn]([Cl])[O]c1cc(O)ccc1C=NCCN=C2
SOD: 58

STRUCTURE: COc1ccc2c(c1)[O][Mn]([Cl])[O]c1cc(OC)ccc1C=NCCN=C2
SOD: 70

STRUCTURE: COc1ccc2c(c1)[O][Mn]([O]C(C)=O)[O]c1cc(OC)ccc1C=NCCN=C2
SOD: 68

STRUCTURE: C1=NCCN=Cc2ccccc2[O][Cu][O]c2ccccc21
SOD: 0

STRUCTURE: COc1ccc2c(c1)C=NCCN=Cc1cc(OC)ccc1[O][Mn]([O]C(C)=O)[O]2
SOD: 100

STRUCTURE: COc1cccc2c1[O][Mn]([O]C(C)=O)[O]c1c(cccc1OC)C=NCCN=C2
SOD: 96

// for each molecule below, give its SOD
1. COc1cc2c(c(OC)c1)[O][Mn]([O]C(C)=O)[O]c1c(cc(OC)cc1OC)C=NCCN=C2
2. CCOc1cccc2c1[O][Mn]([Cl])[O]c1c(cccc1OCC)C=NCCN=C2
3. CCOc1cccc2c1[O][Mn]([O]C(C)=O)[O]c1c(cccc1OCC)C=NCCN=C2
4. COc1cccc2c1[O][Mn]([O]C(C)=O)[O]c1c(cccc1OC)C=Nc1ccccc1N=C2
5. [Br][Mn]1[O]c2ccccc2C=NCCN=Cc2ccccc2[O]1

stdout:
130
94
88
91
178

Please state SOD for every molecule in the list that follows.
1. [Cl][Mn]1[O]c2ccccc2C=NCCN=Cc2ccccc2[O]1
2. COc1ccc2c(c1)C=NCCN=Cc1cc(OC)ccc1[O][Mn]([Cl])[O]2
3. COc1cc(OC)c2c(c1)[O][Mn]([Cl])[O]c1cc(OC)cc(OC)c1C=NCCN=C2
4. [F][Mn]1[O]c2ccccc2C=NCCN=Cc2ccccc2[O]1

stdout:
1. 100
2. 114
3. 27
4. 75
